# study_system: FLT-3 (Homo sapiens, UniProt P36888)
# Construct: 0.02% BSA and 3 nM FLT-3
# Sequence (P36888 27-993): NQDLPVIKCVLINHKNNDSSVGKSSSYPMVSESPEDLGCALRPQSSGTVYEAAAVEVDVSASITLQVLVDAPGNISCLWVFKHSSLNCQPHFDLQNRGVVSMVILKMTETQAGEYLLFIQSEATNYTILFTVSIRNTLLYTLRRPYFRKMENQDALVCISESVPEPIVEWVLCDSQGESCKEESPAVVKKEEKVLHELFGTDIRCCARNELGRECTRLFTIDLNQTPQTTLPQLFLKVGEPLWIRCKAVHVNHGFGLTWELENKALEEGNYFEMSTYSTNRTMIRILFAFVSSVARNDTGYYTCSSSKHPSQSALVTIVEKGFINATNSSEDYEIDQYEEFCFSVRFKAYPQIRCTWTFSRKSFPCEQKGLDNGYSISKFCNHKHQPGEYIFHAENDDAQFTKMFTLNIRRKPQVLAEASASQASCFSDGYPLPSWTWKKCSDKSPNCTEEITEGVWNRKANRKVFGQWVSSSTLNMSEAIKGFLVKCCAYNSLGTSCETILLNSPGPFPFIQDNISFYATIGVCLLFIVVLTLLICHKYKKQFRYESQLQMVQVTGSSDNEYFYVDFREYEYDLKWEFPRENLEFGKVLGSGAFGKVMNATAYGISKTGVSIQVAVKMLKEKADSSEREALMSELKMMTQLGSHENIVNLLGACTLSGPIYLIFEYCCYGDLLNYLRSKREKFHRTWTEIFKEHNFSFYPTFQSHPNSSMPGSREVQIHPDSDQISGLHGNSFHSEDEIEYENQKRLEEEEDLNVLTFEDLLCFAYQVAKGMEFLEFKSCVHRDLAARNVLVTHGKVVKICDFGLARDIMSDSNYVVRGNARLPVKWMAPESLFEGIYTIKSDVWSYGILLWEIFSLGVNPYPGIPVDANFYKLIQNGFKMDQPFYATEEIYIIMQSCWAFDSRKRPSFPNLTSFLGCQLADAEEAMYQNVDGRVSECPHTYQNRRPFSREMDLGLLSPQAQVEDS
# method_notes: Inhibition of FLT-3, radiometric filter-binding assay
# Format: biochemical
# applied_conditions: 90 μM ATP, pE4Y substrate; read-out: Ki values (FLT-3)
quantity_measured: Ki

structure_smiles_string: c1ccc(-n2cnc(Nc3ccnc(N4CCOCC4)c3)n2)cc1
quantity_measured: Ki
value: 1 to 30 nM
//
structure_smiles_string: c1ccc(Nc2ncn(-c3ccnc(N4CCCCCC4)c3)n2)cc1
quantity_measured: Ki
value: < 60 nM
//
structure_smiles_string: CN(CCO)c1cc(-n2cnc(Nc3ccccc3)n2)ccn1
quantity_measured: Ki
value: < 60 nM
//
structure_smiles_string: CC(=O)N1[C@H](C)CN(c2cc(-n3cnc(Nc4ccc(NC(=O)OCC(C)C)cc4)n3)ccn2)C[C@@H]1C
quantity_measured: Ki
value: 30 to 200 nM
//
structure_smiles_string: CC(=O)N1[C@H](C)CN(c2cc(-n3cnc(Nc4ccc(N5CCN(C(=O)OC(C)(C)C)CC5)cc4)n3)ccn2)C[C@@H]1C
quantity_measured: Ki
value: 1 to 30 nM
//
structure_smiles_string: CC(=O)N1[C@H](C)CN(c2cc(-n3cnc(Nc4ccc(NC(=O)c5cccs5)cc4)n3)ccn2)C[C@@H]1C
quantity_measured: Ki
value: < 60 nM
//
structure_smiles_string: O=C(CC1CCCC1)Nc1cc(-n2cnc(Nc3ccccc3)n2)ccn1
quantity_measured: Ki
value: 1 to 30 nM
//
structure_smiles_string: CCOc1ccc(Nc2ncn(-c3ccccc3)n2)cc1
quantity_measured: Ki
value: 30 to 200 nM
//
structure_smiles_string: CC(=O)N1[C@H](C)CN(c2cc(-n3cnc(Nc4ccc(NC(=O)NC(C)(C)C)cc4)n3)ccn2)C[C@@H]1C
quantity_measured: Ki
value: 30 to 200 nM
//
structure_smiles_string: CC(=O)N1[C@H](C)CN(c2cc(-n3cnc(Nc4ccc(NC(=O)OCC(C)(C)C)cc4)n3)ccn2)C[C@@H]1C
quantity_measured: Ki
value: 30 to 200 nM

* * *

This section lists Ki readings for UniProt:P35968.
Sequence (P35968 20-1356): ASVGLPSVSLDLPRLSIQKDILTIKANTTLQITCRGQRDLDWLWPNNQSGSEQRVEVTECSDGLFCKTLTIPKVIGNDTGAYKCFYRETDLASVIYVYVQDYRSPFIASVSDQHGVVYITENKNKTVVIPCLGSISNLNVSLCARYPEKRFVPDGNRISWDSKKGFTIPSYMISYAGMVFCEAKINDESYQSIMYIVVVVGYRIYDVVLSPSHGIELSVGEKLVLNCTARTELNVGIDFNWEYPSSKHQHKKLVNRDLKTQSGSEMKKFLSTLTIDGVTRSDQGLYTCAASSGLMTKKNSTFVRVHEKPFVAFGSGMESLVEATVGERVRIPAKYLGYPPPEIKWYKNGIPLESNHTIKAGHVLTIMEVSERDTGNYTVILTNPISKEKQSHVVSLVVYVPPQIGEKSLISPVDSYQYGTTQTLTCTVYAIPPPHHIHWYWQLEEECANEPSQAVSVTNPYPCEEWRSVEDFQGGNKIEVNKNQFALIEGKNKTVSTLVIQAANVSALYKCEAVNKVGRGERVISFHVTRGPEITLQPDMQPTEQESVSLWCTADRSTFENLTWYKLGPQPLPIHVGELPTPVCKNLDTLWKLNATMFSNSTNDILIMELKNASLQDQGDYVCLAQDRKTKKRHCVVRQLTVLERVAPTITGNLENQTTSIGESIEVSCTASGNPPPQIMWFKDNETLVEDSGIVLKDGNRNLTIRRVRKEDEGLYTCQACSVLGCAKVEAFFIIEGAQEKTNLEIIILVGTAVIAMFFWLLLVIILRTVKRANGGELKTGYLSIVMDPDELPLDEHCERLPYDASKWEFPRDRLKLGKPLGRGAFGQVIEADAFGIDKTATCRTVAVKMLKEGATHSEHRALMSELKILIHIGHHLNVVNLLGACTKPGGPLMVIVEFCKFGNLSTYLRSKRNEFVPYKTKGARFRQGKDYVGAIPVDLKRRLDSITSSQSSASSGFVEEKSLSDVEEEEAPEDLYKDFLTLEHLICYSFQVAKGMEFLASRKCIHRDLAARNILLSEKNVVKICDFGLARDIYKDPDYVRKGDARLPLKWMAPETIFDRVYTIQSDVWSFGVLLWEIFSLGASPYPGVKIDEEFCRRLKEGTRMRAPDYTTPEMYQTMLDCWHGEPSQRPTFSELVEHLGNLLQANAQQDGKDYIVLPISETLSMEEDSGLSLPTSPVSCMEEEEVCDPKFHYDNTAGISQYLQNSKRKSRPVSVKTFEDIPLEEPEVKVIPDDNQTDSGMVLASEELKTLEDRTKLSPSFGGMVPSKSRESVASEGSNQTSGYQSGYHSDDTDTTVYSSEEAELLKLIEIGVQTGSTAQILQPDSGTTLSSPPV
quantity_measured: Ki

compound: COCC(=O)N1CCCN(c2cc(-n3cnc(Nc4ccccc4)n3)ccn2)CC1 [Compound I-71]
quantity_measured: Ki
value: 0.1 to 1 µM

compound: CC(=O)N1[C@H](C)CN(c2cc(-n3cnc(Nc4ccc(NC(=O)c5ccco5)cc4)n3)ccn2)C[C@@H]1C [Compound I-81]
quantity_measured: Ki
value: < 0.1 µM

compound: CCCN(CCO)c1cc(-n2cnc(Nc3ccccc3)n2)ccn1 [Compound I-58]
quantity_measured: Ki
value: < 0.1 µM

compound: CC(=O)N1[C@H](C)CN(c2cc(-n3cnc(Nc4ccc(NC(=O)OC(C)C)cc4)n3)ccn2)C[C@@H]1C [Compound I-89]
quantity_measured: Ki
value: 0.1 to 1 µM

compound: CC(=O)N1[C@H](C)CN(c2cc(-n3cnc(Nc4ccc(NC(=O)c5cccs5)cc4)n3)ccn2)C[C@@H]1C [Compound I-80]
quantity_measured: Ki
value: 0.1 to 1 µM

compound: CCN(CCO)c1cc(-n2cnc(Nc3ccccc3)n2)ccn1 [Compound I-54]
quantity_measured: Ki
value: < 0.1 µM

compound: CCC(=O)N1CCCN(c2cc(-n3cnc(Nc4ccccc4)n3)ccn2)CC1 [Compound I-67]
quantity_measured: Ki
value: 0.1 to 1 µM

compound: CCCOC(=O)Nc1ccc(Nc2ncn(-c3ccnc(N4C[C@@H](C)N(C(C)=O)[C@@H](C)C4)c3)n2)cc1 [Compound I-88]
quantity_measured: Ki
value: 0.1 to 1 µM

compound: CC(=O)N1[C@H](C)CN(c2cc(-n3cnc(Nc4ccc(N5CCN(C(=O)OC(C)(C)C)CC5)cc4)n3)ccn2)C[C@@H]1C [Compound I-97]
quantity_measured: Ki
value: < 0.1 µM

compound: CC(=O)N1[C@H](C)CN(c2cc(-n3cnc(Nc4ccc(NC(=O)OCC(C)C)cc4)n3)ccn2)C[C@@H]1C [Compound I-90]
quantity_measured: Ki
value: 0.1 to 1 µM

compound: c1ccc(Nc2ncn(-c3ccnc(N4CCCCCCC4)c3)n2)cc1 [Compound I-52]
quantity_measured: Ki
value: < 0.1 µM

compound: CC(=O)N1[C@H](C)CN(c2cc(-n3cnc(Nc4ccc(NC(=O)N(C)C)cc4)n3)ccn2)C[C@@H]1C [Compound I-77]
quantity_measured: Ki
value: 0.1 to 1 µM

compound: O=C(C1CCCO1)N1CCN(c2cc(-n3cnc(Nc4ccccc4)n3)ccn2)CC1 (centres unmarked) [Compound I-64]
quantity_measured: Ki
value: > 1 µM

compound: CCN(CC)CCNc1cc(-n2cnc(Nc3ccccc3)n2)ccn1 [Compound I-60]
quantity_measured: Ki
value: > 1 µM

* * *

Each item that follows carries a reported pKi.
# study_system: CDK-2/Cyclin A (Homo sapiens)
# Construct: 25 nM CDK-2/Cyclin A
# method_notes: Inhibition of CDK-2, coupled enzyme assay
# applied_conditions: 100 μM ATP, 30° C.
pKi: −log10 of the molar value.
quantity_measured: pKi

molecule: CC(C)(C)CC(=O)Nc1cc(-n2cnc(Nc3ccccc3)n2)ccn1 [Compound I-102]
quantity_measured: pKi
value: < 6.00
//
molecule: CC(=O)N1[C@H](C)CN(c2cc(-n3cnc(Nc4ccc(NC(=O)OC(C)C)cc4)n3)ccn2)C[C@@H]1C [Compound I-89]
quantity_measured: pKi
value: 6.00 to 6.30
//
molecule: CC1CCCN1c1cc(-n2cnc(Nc3ccccc3)n2)ccn1 (stereo not shown) [Compound I-56]
quantity_measured: pKi
value: > 6.30
//
molecule: CC(C)CCN(C)c1cc(-n2cnc(Nc3ccccc3)n2)ccn1 [Compound I-62]
quantity_measured: pKi
value: > 6.30
//
molecule: CC(C)CC(=O)N1CCCN(c2cc(-n3cnc(Nc4ccccc4)n3)ccn2)CC1 [Compound I-70]
quantity_measured: pKi
value: < 6.00
//
molecule: CC(C)C(=O)N1CCCN(c2cc(-n3cnc(Nc4ccccc4)n3)ccn2)CC1 [Compound I-69]
quantity_measured: pKi
value: < 6.00
//
molecule: CCOc1ccc(Nc2ncn(-c3ccccc3)n2)cc1 [Compound I-47]
quantity_measured: pKi
value: < 6.00
//
molecule: CC(=O)N1[C@H](C)CN(c2cc(-n3cnc(Nc4ccc(NC(=O)C(F)(F)F)cc4)n3)ccn2)C[C@@H]1C [Compound I-79]
quantity_measured: pKi
value: > 6.30
//
molecule: N#CCC(=O)N1CCCN(c2cc(-n3cnc(Nc4ccccc4)n3)ccn2)CC1 [Compound I-72]
quantity_measured: pKi
value: > 6.30
//
molecule: c1ccc(-n2cnc(Nc3ccnc(NCCN4CCOCC4)c3)n2)cc1 [Compound I-107]
quantity_measured: pKi
value: < 6.00
//
molecule: CCOC(=O)c1ccc(Nc2ncn(-c3ccnc(N4C[C@@H](C)N(C(C)=O)[C@@H](C)C4)c3)n2)cc1 [Compound I-75]
quantity_measured: pKi
value: 6.00 to 6.30
//
molecule: CC(=O)N1[C@H](C)CN(c2cc(-n3cnc(Nc4ccc(NC(=O)OCC(C)(C)C)cc4)n3)ccn2)C[C@@H]1C [Compound I-91]
quantity_measured: pKi
value: 6.00 to 6.30
//
molecule: c1ccc(-n2cnc(Nc3ccc4c(c3)OCCO4)n2)cc1 [Compound I-44]
quantity_measured: pKi
value: < 6.00
